- EXPERIMENTAL SYSTEM: T1, Human CLDN18.2 (human)
- T1 construct: On transfected HEK293-6E cells; also called Claudin18.2
- EXPERIMENTAL PROTOCOL: FACS on transfected HEK293-6E cells, 4 parameter logistic fit
Here, each record is paired with measured Bmax data.
Just the number.

Examples with answers:
v37408 (antibody, human IgG1, V domains shown, Humanized, recombinant human IgG1-based monoclonal antibody; also called H4-L2) VH: QVQLVESGGGLVQPGGSLRLSCSVSGIDLSSNPMIWVRQAPGKGLEYIGIIDTDGSTYYADWAKGRFTISKDSTTVYLQMNSLRAEDTAVYYCARRLHGSSNGYYDDLWGQGTLVTVSS VL: DGQMTQSPSSVSASVGDRVTITCQASQSIYSYLSWYQQKPGQRPKLLIYKASTLASGVPSRFSGSGSGTDFTLTISSVQPEDAATYYCQQGYTVTNVDKNTFGGGTKVEVK : 2190
v37407 (antibody, human IgG1, V domains shown, Humanized, recombinant human IgG1-based monoclonal antibody; also called H4-L4) VH: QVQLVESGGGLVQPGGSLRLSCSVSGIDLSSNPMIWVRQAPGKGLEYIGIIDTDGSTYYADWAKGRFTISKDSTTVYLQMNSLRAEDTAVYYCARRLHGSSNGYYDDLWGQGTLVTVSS VL: DGQMTQSPSSVSASVGDRVTITCQASQSIYSYLSWYQQKPGQRPKLLIYKASTLASGVPSRFSGSGSGTDFTLTISSVQPEDFATYYCQQGYTVTNVDKNTFGGGTKVEIK : 2040
v37410 (antibody, human IgG1, V domains shown, Humanized, recombinant human IgG1-based monoclonal antibody; also called H3-L4) VH: QVQLVESGGGLVQPGGSLRLSCSVSGIDLSSNPMIWVRQAPGKGLQYIGIIDTDGSTYYADWAKGRFTISKDSSKNTVYLQMNSLRAEDTAVYYCARRLHGSSNGYYDDLWGQGTLVTVSS VL: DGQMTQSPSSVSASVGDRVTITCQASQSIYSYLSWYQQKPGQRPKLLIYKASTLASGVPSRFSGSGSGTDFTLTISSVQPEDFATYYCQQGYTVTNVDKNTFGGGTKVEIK : 1910
v35777 (antibody, human IgG1, V domains shown, Rabbit variable regions on human IgG1 (constant region starts at alanine Kabat-114) and human C kappa (starts at arginine Kabat-108); also called parental rabbit chimeric; rabbit-human chimeric IgG1/kappa antibody construct) VH: QSLEESGGRLVTPGTPLTLTCTVSGIDLSSNPMIWVRQAPGKGLQYIGIIDTDGSTYYASWAKGRFTGSKTSTTVDLKITSPTTEDTATYFCARRLHGSSNGYYDDLWGQGTLVTISS VL: DGVMTQTPSSVSAAVGGTVTIKCQASQSIYSYLSWYQQKPGQRPKLLIYKASTLASGVPSRFKGSGSGTEFTLTISGVQCDDAATYYCQQGYTVTNVDKNTFGGGTEVVVK : 2070
v37409 (antibody, human IgG1, V domains shown, Humanized, recombinant human IgG1-based monoclonal antibody; also called H2-L4) VH: QVQLVESGGGLVQPGGSLRLSCSVSGIDLSSNPMIWVRQAPGKGLEYIGIIDTDGSTYYADWAKGRFTISKDSSKNTVYLQMNSLRAEDTAVYYCARRLHGSSNGYYDDLWGQGTLVTVSS VL: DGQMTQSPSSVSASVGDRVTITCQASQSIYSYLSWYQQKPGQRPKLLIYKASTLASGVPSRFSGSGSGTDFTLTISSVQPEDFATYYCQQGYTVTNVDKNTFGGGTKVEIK : 1960

Here is another binder to look at.
Ask: Item v37411 (antibody, human IgG1, V domains shown, Humanized, recombinant human IgG1-based monoclonal antibody; also called H5-L4) VH: QVQLVESGGGLVQPGGSLRLSCSVSGIDLSSNPMIWVRQAPGKGLQYIGIIDTDGSTYYADWAKGRFTISKDSTTVYLQINSPRAEDTAVYYCARRLHGSSNGYYDDLWGQGTLVTVSS VL: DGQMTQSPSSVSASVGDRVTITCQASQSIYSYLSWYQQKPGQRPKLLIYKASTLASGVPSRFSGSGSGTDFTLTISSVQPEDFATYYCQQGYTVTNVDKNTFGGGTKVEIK has what recorded Bmax?
Result: 2170
